- assayed-target: Complement C5 full length (Homo sapiens, UniProt P01031;P01031 P01031:19-673,P01031:678-1676)
- Sequence (P01031 19-673, chain 1 of 2): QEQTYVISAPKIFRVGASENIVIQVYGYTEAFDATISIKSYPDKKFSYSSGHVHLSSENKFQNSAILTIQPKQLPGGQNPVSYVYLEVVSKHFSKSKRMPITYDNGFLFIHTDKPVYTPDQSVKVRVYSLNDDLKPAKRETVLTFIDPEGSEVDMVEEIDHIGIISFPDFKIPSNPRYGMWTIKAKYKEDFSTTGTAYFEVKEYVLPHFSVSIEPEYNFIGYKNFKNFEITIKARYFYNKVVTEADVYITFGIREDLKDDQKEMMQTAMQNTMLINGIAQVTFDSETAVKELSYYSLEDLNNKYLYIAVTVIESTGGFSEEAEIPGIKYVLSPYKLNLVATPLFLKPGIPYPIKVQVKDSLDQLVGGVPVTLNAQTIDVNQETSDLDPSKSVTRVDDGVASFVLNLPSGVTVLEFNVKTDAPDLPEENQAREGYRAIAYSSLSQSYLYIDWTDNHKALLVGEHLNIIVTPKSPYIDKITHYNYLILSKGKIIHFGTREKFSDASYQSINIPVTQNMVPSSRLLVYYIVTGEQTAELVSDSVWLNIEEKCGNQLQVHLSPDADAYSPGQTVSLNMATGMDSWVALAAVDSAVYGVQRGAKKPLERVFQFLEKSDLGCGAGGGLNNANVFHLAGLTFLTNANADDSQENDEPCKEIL
- Sequence (P01031 678-1676, chain 2 of 2): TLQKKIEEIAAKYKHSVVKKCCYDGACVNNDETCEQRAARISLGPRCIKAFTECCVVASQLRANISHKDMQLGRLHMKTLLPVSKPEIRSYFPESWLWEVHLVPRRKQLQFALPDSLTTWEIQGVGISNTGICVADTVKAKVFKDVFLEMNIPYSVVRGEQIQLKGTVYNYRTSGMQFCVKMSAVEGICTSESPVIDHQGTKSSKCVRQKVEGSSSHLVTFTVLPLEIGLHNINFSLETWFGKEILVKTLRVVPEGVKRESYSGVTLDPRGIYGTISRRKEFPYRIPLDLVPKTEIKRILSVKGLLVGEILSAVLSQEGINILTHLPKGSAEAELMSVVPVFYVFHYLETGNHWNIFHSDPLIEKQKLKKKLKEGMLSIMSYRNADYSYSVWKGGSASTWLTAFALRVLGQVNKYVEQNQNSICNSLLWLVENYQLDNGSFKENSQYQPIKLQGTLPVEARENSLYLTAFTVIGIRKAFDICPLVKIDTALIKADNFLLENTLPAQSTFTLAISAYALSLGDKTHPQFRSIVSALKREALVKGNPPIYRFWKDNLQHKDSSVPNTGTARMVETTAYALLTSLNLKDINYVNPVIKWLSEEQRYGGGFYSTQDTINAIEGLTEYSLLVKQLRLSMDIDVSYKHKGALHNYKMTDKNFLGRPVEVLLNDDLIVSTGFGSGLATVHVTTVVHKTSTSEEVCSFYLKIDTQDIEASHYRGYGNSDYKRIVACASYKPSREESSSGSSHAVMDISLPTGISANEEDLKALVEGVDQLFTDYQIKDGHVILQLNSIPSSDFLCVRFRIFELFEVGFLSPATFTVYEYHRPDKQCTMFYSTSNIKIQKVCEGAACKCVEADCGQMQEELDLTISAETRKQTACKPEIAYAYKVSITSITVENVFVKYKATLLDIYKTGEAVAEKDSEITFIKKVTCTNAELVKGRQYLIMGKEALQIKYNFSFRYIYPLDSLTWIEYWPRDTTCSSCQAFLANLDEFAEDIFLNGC
- measurement-protocol: inhibition; 0.2% human serum, sheep erythrocytes, GVB++, 25 C
- condition-summary: tags: Quidel Corporation, San Diego
pIC50: −log10 of the molar value.
parameter: pIC50

Form field: reported pIC50 of AMX221.E1 (mixed, dRmY: deoxy A,G; 2'-OMe C,U (cDNA printed, T=U)) DNA: GGGAGAGGAGAGAACGTTCTACCTTGGTTTGGCACAGGCATACATACGCAGGGGTCGATCGATCGATCATCGATG ~7.52
